# target-system: 20S proteasome β5 subunit (chymotrypsin-like activity) (Rattus norvegicus, UniProt P28075)
# Construct: with other subunits of the 20S/26S proteasome
# Sequence (P28075 60-263): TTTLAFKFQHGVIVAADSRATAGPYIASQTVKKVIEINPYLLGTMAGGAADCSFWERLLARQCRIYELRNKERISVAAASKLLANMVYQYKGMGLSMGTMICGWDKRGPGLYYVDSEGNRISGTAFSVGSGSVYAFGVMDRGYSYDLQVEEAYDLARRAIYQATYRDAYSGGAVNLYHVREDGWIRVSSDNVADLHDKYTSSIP
# assay-notes: chymotrypsin-like activity (Suc-LLVY-MCA cleavage) in lysates of MG-132-treated INS-1E cells, dose-response
Residues, ends and D or L forms follow the SMILES beside them. *: point of attachment. Cbz = O=C(OCc1ccccc1)*
quantity: Ki (nM)
# unit: nM | format: bare number

Reported Ki for 20S proteasome β5 subunit (chymotrypsin-like activity) (Rattus norvegicus, UniProt P28075), given CC(C)C[C@@H](C=O)NC(=O)[C@H](CC(C)C)NC(=O)[C@H](CC(C)C)NC(=O)OCc1ccccc1 [MG-132] (Cbz-Leu-Leu-Leu-aldehyde) ?
50
